assay: MRT (0 to t) in Sprague-Dawley rat at 1 mg/kg, iv measured for 24 hrs by LC-MS/MS analysis; type: ADME, organism-based; conditions: in vivo
Quantity name: MRT last at 24 h (h)
API: value field is a number in h; no unit string.

May I ask what MRT last at 24 h has been recorded for `CCN1CCN(c2ccc(C(=O)Nc3cc(-c4ccc5ncn(Cc6c(Cl)cccc6Cl)c5c4)[nH]n3)cc2)CC1` ?
1.96

---

test system: MOLM-13; experiment: Antiproliferative activity against human MOLM-13 cells assessed as reduction in cell viability measured after 72 hrs by CellTiterGlo luminescent assay; format: functional, cell-based; conditions: MOLM-13, 72 h
Quantity name: IC50 (nM)
API: value field is a number in nM; no unit string.

May I ask what IC50 has been recorded for `CCN1CCN(c2ccc(C(=O)Nc3cc(-c4ccc5ncn(Cc6c(Cl)cccc6Cl)c5c4)[nH]n3)cc2)CC1` ?
9.85
